# System: A431
# TEST NAME: LBPA endosome anti-LBPA integrated intensity (sum per cell), Z-score; higher = more LBPA staining
# COND: compound concentration in added solution (µM; 5 µl added to 20 µl cells): 10; 18 h
Structures can show the parent of a compound that is named as a salt.
Recorded LBPA endosome anti-LBPA integrated intensity (z-score) by entry
I only need the number, thanks.

Take a look at these entries with their results.
INSERT INTO measurements (compound, assay_value) VALUES
  ('CNCCC(Oc1ccc(C(F)(F)F)cc1)c1ccccc1 (centres undefined) [Fluoxetine hydrochloride]', 2.5),
  ('CC(CN(C)C)CN1c2ccccc2CCc2ccccc21 (centres undefined) [Trimipramine maleate salt]', 2.39),
  ('CN(C)C/C=C(/c1ccc(Br)cc1)c1cccnc1 [Zimelidine dihydrochloride monohydrate]', -0.281),
  ('O=C(O)CCC(=O)Nc1ccc(S(=O)(=O)Nc2nccs2)cc1 [Succinylsulfathiazole]', -0.428),
  ('CO[C@H]1/C=C/O[C@@]2(C)Oc3c(C)c(O)c4c(c3C2=O)C2=NC3(CCN(CC(C)C)CC3)NC2=C(NC(=O)/C(C)=C\C=C\[C@H](C)[C@H](O)[C@@H](C)[C@@H](O)[C@@H](C)[C@H](OC(C)=O)[C@@H]1C)C4=O [Rifabutin]', -0.125),
  ('O=C1c2ccccc2S(=O)(=O)N1CCCCN1CCN(c2ncccn2)CC1 [Ipsapirone]', -0.419),
  ('COc1ccccc1OCC(O)CN1CCN(CC(=O)Nc2c(C)cccc2C)CC1 (centres undefined) [Ranolazine]', -0.238),
  ('Cc1[nH]c(=O)c(C#N)cc1-c1ccncc1 [Milrinone]', -0.393);

If you can, please state the reported LBPA endosome anti-LBPA integrated intensity (z-score) value of O=C(OCC(O)CO)c1ccccc1Nc1ccnc2cc(Cl)ccc12 (centres undefined) [Glafenine hydrochloride] . 0.592

Query: LBPA endosome anti-LBPA integrated intensity (z-score); subject: CN(C)CCOC(c1ccc(Cl)cc1)c1ccccn1 (centres undefined) [Carbinoxamine maleate salt] -0.697

Please look up its LBPA endosome anti-LBPA integrated intensity (z-score): CNNCc1ccc(C(=O)NC(C)C)cc1 [Procarbazine hydrochloride] -0.593

Entry CCCCCCC[N+](CC)(CC)CCCCc1ccc(Cl)cc1 [Clofilium tosylate] : reported LBPA endosome anti-LBPA integrated intensity (z-score) = ? -0.496

###

Measured whole-cell filipin (z-score), listed per entry.
# Test system: A431
# TEST NAME: whole-cell filipin (free cholesterol) integrated intensity, Z-score; higher = more cholesterol staining
# COND: compound concentration in added solution (µM; 5 µl added to 20 µl cells): 10; 18 h

Take a look at these entries with their results.
INSERT INTO measurements (molecule, reported_endpoint, assay_value) VALUES
  ('C[C@@H](O)[C@H]1C(=O)N2C(C(=O)O)=C(SCCNC=N)C[C@H]12 [Imipenem]', 'whole-cell filipin (z-score)', -0.414),
  ('O=C1Nc2ccc(Cl)cc2[C@@](C#CC2CC2)(C(F)(F)F)O1 [Efavirenz]', 'whole-cell filipin (z-score)', -0.938);

// lookup whole-cell filipin (z-score) for Cn1c(=O)c2c(ncn2CCO)n(C)c1=O [Etofylline] -0.938

###

Measured filipin (z-score) values are reported for all entries that follow.
# Test system: A431
# TEST NAME: filipin (cholesterol) integrated intensity within LBPA endosomes, Z-score; higher = more cholesterol in LBPA endosomes
# COND: compound concentration in added solution (µM; 5 µl added to 20 µl cells): 10; 18 h
Counter-ions that a name gives are not always drawn.

INSERT INTO measurements (compound, assay_value) VALUES
  ('CN(C)CCOc1ccc(/C(=C(/CCCl)c2ccccc2)c2ccccc2)cc1', 2.35),
  ('O=C1CN(/N=C/c2ccc([N+](=O)[O-])o2)C(=O)N1', -0.501),
  ('O=C1c2ccccc2S(=O)(=O)N1CCCCN1CCN(c2ncccn2)CC1', -0.426),
  ('CC(=O)CC(c1ccc([N+](=O)[O-])cc1)c1c(O)c2ccccc2oc1=O (centres undefined)', -0.49),
  ('N#CC(c1ccc(Cl)cc1)c1c(Cl)cc(-n2ncc(=O)[nH]c2=O)cc1Cl (centres undefined)', -0.215),
  ('CC(C)NCC(O)COc1ccc(CCOCC2CC2)cc1 (centres undefined) [Betaxolol hydrochloride]', 0.614),
  ('COc1c(O[C@@H]2O[C@H](CO)[C@@H](O)[C@H](O)[C@H]2O)cc2c(c1OC)-c1ccc(SC)c(=O)cc1[C@@H](NC(C)=O)CC2 [Thiocolchicoside]', -0.477),
  ('CC1(C)[C@@H](OC(=O)CCC(=O)O)CC[C@]2(C)[C@H]3C(=O)C=C4[C@@H]5C[C@@](C)(C(=O)O)CC[C@]5(C)CC[C@@]4(C)[C@]3(C)CC[C@@H]12 [Carbenoxolone disodium salt]', -0.408);

Give the reported filipin (z-score) for N=C(N=C(N)N)N1CCOCC1 [Moroxidine hydrochloride] (system: A431). -0.527

###

# Test system: HeLa MZ
# TEST NAME: LBPA endosome anti-LBPA integrated intensity (sum per cell), Z-score; higher = more LBPA staining
# COND: compound concentration in added solution (µM; 5 µl added to 20 µl cells): 10; 18 h
Where a name gives a salt, the structure may show the parent alone.
# LBPA endosome anti-LBPA integrated intensity (z-score) annotations

INSERT INTO results (compound, assay_value) VALUES
  ('O=C(O)c1cccnc1', -1.61),
  ('CCN(CC)CCNC(=O)c1cc(S(C)(=O)=O)ccc1OC [Tiapride hydrochloride]', 0.333),
  ('CC[N+](C)(C)c1cccc(O)c1 [Edrophonium chloride]', -1.29);

Missing value: LBPA endosome anti-LBPA integrated intensity (z-score), HeLa MZ, entry O=S(=O)(O)c1cc(O)ccc1O [Ethamsylate] . Fill in? 0.237

So what LBPA endosome anti-LBPA integrated intensity (z-score) did CN[C@H](CC(C)C)C(=O)N[C@H]1C(=O)N[C@@H](CC(N)=O)C(=O)N[C@H]2C(=O)N[C@H]3C(=O)N[C@H](C(=O)N[C@H](C(=O)O)c4cc(O)cc(O)c4-c4cc3ccc4O)[C@H](O)c3ccc(c(Cl)c3)Oc3cc2cc(c3O[C@@H]2O[C@H](CO)[C@@H](O)[C@H](O)[C@H]2O[C@H]2C[C@](C)(N)[C@H](O)[C@H](C)O2)Oc2ccc(cc2Cl)[C@H]1O [Vancomycin hydrochloride] get with HeLa MZ? -0.0824

Hello, I am looking for reported LBPA endosome anti-LBPA integrated intensity (z-score) with HeLa MZ for Cn1c([N+](=O)[O-])cnc1COC(N)=O . Could you help? -0.899

###

# System: HeLa MZ
# TEST NAME: LBPA endosome anti-LBPA integrated intensity (sum per cell), Z-score; higher = more LBPA staining
# COND: compound concentration in added solution (µM; 5 µl added to 20 µl cells): 10; 18 h
Structures can show the parent of a compound that is named as a salt.
Label rule, in plain words: LBPA endosome anti-LBPA integrated intensity (z-score) of 1 and up is true, under 1 is false.

Some solved entries appear below for comparison.
INSERT INTO results (molecule, system_name, answer_label) VALUES
  ('Clc1ccc(C(Cn2ccnc2)OCc2c(Cl)cccc2Cl)c(Cl)c1 (stereo not drawn)', 'HeLa MZ', 'true'),
  ('COc1cc2nc(N3CCN(C(=O)C4COc5ccccc5O4)CC3)nc(N)c2cc1OC (stereo not drawn) [Doxazosin mesylate]', 'HeLa MZ', 'true'),
  ('C[C@]12CCC(=O)C=C1C=C[C@@H]1[C@@H]2CC[C@@]2(C)[C@H]1CC[C@@]21CCC(=O)O1', 'HeLa MZ', 'true');

Then there is this molecule:
Does the molecule CN/C(=N\CCSCc1nc[nH]c1C)NC#N have recorded LBPA endosome anti-LBPA integrated intensity (z-score) that is 1 or more? false

###

The reader will find reported LBPA endosome anti-LBPA integrated intensity (z-score) values listed item by item below.
# System: A431
# TEST NAME: LBPA endosome anti-LBPA integrated intensity (sum per cell), Z-score; higher = more LBPA staining
# COND: compound concentration in added solution (µM; 5 µl added to 20 µl cells): 10; 18 h
Structures can show the parent of a compound that is named as a salt.
Answer with a number only.

INSERT INTO assay_data (compound, assay_value) VALUES
  ('COc1cc(C)c(/C=C/C(C)=C/C=C/C(C)=C/C(=O)O)c(C)c1C', -0.624),
  ('Clc1ccc(C(Cn2ccnc2)OCc2c(Cl)cccc2Cl)c(Cl)c1 (stereo not given)', -0.0559),
  ('CCN(CC)CC#CCOC(=O)C(O)(c1ccccc1)C1CCCCC1 (stereo not given) [Oxybutynin chloride]', 0.579),
  ('CC(N)CCCC(C)(C)O (stereo not given) [Heptaminol hydrochloride]', -0.451);

Now take the following compound into account.
Bench note: what LBPA endosome anti-LBPA integrated intensity (z-score) did COc1ccc(C(=O)c2ccccc2O)c(O)c1 show? -0.417
